# assayedTarget: TRβ-GAL4 binding domain chimeric receptors (Homo sapiens (Human), UniProt P10828)
# Sequence (P10828 217-461, change not shown): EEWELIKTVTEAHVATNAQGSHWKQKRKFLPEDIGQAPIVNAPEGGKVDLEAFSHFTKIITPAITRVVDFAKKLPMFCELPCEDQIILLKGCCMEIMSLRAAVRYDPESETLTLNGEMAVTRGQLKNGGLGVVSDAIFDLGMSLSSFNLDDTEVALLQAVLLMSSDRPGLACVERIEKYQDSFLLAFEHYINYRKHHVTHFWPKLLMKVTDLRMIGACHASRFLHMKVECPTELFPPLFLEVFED
# runDescription: Thyroid hormone receptor cell assay (GAL4 luciferase reporter in HEK293-LUC cells)
metricName: EC50 (µM)

{"structure": "CC(C)c1c[nH]c2ccc(Oc3c(Cl)cc(-n4nc(C#N)c(=O)[nH]c4=O)cc3C(F)(F)F)cc12", "assayedTarget": "TRβ-GAL4 binding domain chimeric receptors (Homo sapiens (Human), UniProt P10828)", "unitAbbrev": "µM", "recordedNumber": 0.23}
{"structure": "N#Cc1nn(-c2cc(Br)c(Oc3cc(C4CCCC4)c(=O)[nH]n3)c(Br)c2)c(=O)[nH]c1=O", "assayedTarget": "TRβ-GAL4 binding domain chimeric receptors (Homo sapiens (Human), UniProt P10828)", "unitAbbrev": "µM", "recordedNumber": 4.98}
{"structure": "N#Cc1nn(-c2cc(Cl)c(Oc3cc(C4CCCC4)c(=O)[nH]n3)c(C(F)(F)F)c2)c(=O)[nH]c1=O", "assayedTarget": "TRβ-GAL4 binding domain chimeric receptors (Homo sapiens (Human), UniProt P10828)", "unitAbbrev": "µM", "recordedNumber": 8.43}
{"structure": "Cc1nn(-c2cc(Cl)c(Oc3cc(C4CCCC4)c(=O)[nH]n3)c(Cl)c2)c(=O)[nH]c1=O", "assayedTarget": "TRβ-GAL4 binding domain chimeric receptors (Homo sapiens (Human), UniProt P10828)", "unitAbbrev": "µM", "recordedNumber": 0.65}
